Tested on: MS2 coat protein
Assay: apparent Kd, MS2 coat protein; higher = weaker binding; RNA-MaP array; theophylline 2 mM where present
Details: ligand present: theophylline; designed as: ON switch for theophylline
measured.attribute: apparent Kd (nM)
Answers are plain numbers, in nM.

Known apparent Kd results, listed for orientation:
GGUGGGACUUGUGAUACCAGCCCAAUUCGAAUCGAAUUGCACAUGAGGAUCACCCAUGUCGGCCCUUGGCAGCAUGAGUAUUUAU 16.8
CUCCGAGGCUAUACUAUCCGCCUCAGUGAUACCAGAAUACCUAUAUUCCCUUGGCAGCAUCACAUGAGGAUCACCCAUGUGCCAU 15.2
ACACCGAAAGGUGCAUUUACCUUAUCAGAUACCAGACUUUACGUUGUCCCUUGGCAGCUGUAUCACAUGAGGAUCACCCAUGUUG 16.5

List the reported apparent Kd of each sequence below.
1. AACCGAGGCUAUCCUCUACGACUAUGUGAUACCAGAAUAAUUUUAUUCCCUUGGCAGCAUGACAUGAGGAUCACCCAUGUCUCUU
2. UUAGAUAUGACAGAUACCAGCGUGUUGUAGAACAUGAGGAUCACCCAUGUAGUGAUCGAGCGCCCUUGGCAGCUGGUGUGUUUGG
3. GGAUAGAUAGGAGAUACCAGAUACAUCAACAUGAGGAUCACCCAUGUGUCUGCACUAAGUGUCCCUUGGCAGCUCGGAGAUCUGA
4. UGUUUGGUGCGCGAGUGUUGGAUAAUUGAUACCAGUGUAGAUGUACGCCCUUGGCAGCGAAUCCGAACAUGAGGAUCACCCAUGU
5. AGUGUUAUAACUGAUACCAGACUCUCAUGUUUACAUGAGGAUCACCCAUGUUAUUUCUUUGUCCCUUGGCAGCAGAAUUUACACA

a:
[58.2, 440, 20.5, 87.2, 49.3]
